# credit: patent US11858941B2

Readings of IC50 for the listed molecules
System: Endogenous Huntingtin Protein
Assay: Endogenous Huntingtin Protein Assay (Meso Scale Discovery ELISA-based electrochemiluminescence)
Type: cell-based
Settings: MSD plates coated with MW1 (expanded polyglutamine) or MAB2166 capture antibody; lysates

Example results:
molecule: Oc1cc(-c2cn[nH]c2)ccc1-c1cc2scc(C3=CC4COCC(C3)N4)c2nn1 (centres unmarked) [Cpd 25]
systemUnderTest: Endogenous Huntingtin Protein
IC50: ≤ 100 nM

molecule: CC1(C)CC(n2nnc3cc(-c4ccc(-c5ncco5)cc4O)nnc32)CC(C)(C)N1 [Cpd 111]
systemUnderTest: Endogenous Huntingtin Protein
IC50: ≤ 100 nM

molecule: Cc1ncc(-c2ccc(-c3cc4nnn(C5CC(C)(C)NC(C)(C)C5)c4nn3)c(O)c2)s1 [Cpd 150]
systemUnderTest: Endogenous Huntingtin Protein
IC50: ≤ 100 nM

molecule: CC1(C)CC(n2nnc3cc(-c4ccc(-c5ccc(OC(F)F)cn5)cc4O)nnc32)CC(C)(C)N1 [Cpd 103]
systemUnderTest: Endogenous Huntingtin Protein
IC50: 100 to 500 nM

molecule: CC1(C)CC(n2nnc3cc(-c4ccc(-c5ccoc5)cc4O)nnc32)CC(C)(C)N1 [Cpd 95]
systemUnderTest: Endogenous Huntingtin Protein
IC50: 100 to 500 nM

molecule: CC1(C)CC(n2nnc3cc(-c4ccc(-c5ccc(O)cn5)cc4O)nnc32)CC(C)(C)N1 [Cpd 67]
systemUnderTest: Endogenous Huntingtin Protein
IC50: ≤ 100 nM

Enquiry: Can you look up the measured IC50 of CC1(C)CC(n2nnc3cc(-c4ccc(-c5ccc6[nH]nnc6n5)cc4O)nnc32)CC(C)(C)N1 [Cpd 147] for me?
Return: 1000 to 3000 nM

Enquiry: Same question, Cn1nccc1-c1ccc(-c2cc3nnn(C4CC(C)(C)NC(C)(C)C4)c3nn2)c(O)c1 [Cpd 50] this time
Return: 100 to 500 nM

Enquiry: Param item: CC1(C)CC(n2nnc3cc(-c4ccc(-c5cnccn5)cc4O)nnc32)CC(C)(C)N1 [Cpd 60]
Return: 1000 to 3000 nM

Enquiry: Now try Cc1nc2cc(-c3cc(F)c(-c4cn[nH]c4)cc3F)nnc2n1C1CC(C)(C)NC(C)(C)C1 [Cpd 6] .
Return: 500 to 1000 nM

Enquiry: Please answer likewise for Oc1cc(-c2cn[nH]c2)ccc1-c1cc2[nH]cc(N3CCNCC3)c2nn1 [Cpd 43]
Return: 500 to 1000 nM

Enquiry: Thanks! And CC1(C)CC(n2nnc3cc(-c4ccc(-c5ncc(O)cn5)cc4O)nnc32)CC(C)(C)N1 [Cpd 68] ?
Return: ≤ 100 nM

Enquiry: Now the molecule CC1(C)CC(n2nnc3cc(-c4ccc(-c5cn[nH]c5)cc4O)nnc32)CC(C)(C)N1 [Cpd 7]
Return: ≤ 100 nM

Enquiry: Further, for Oc1cc(-c2cn[nH]c2)ccc1-c1cc2[nH]cc(C3CC4CCC(C3)N4)c2nn1 (centres unmarked) [Cpd 29] ?
Return: ≤ 100 nM

Enquiry: Can you check [2H]C([2H])([2H])n1cc(-c2ccc(-c3cc4cnn(C5CC(C)(C)NC(C)(C)C5)c4nn3)c(O)c2)cn1 [Cpd 102] next?
Return: ≤ 100 nM

Enquiry: Subsequent entry: COc1nccc(-c2ccc(-c3cc4nnn(C5CC(C)(C)NC(C)(C)C5)c4nn3)c(O)c2)n1 [Cpd 119]
Return: 100 to 500 nM

Enquiry: And for Cn1cc(-c2cc(O)c(-c3cc4nnn(C5CC(C)(C)NC(C)(C)C5)c4nn3)cc2F)cn1 [Cpd 62] ?
Return: ≤ 100 nM

* * *

Tested on: Endogenous Huntingtin Protein
Assay: Endogenous Huntingtin Protein Assay (Meso Scale Discovery ELISA-based electrochemiluminescence)
Assay type: cell-based
Details: MSD plates coated with MW1 (expanded polyglutamine) or MAB2166 capture antibody; lysates
pIC50: −log10 of the molar value.
Recorded measurements of pIC50, one per entry

Recorded results for 3 compounds are shown here.
molecule: CC1(C)CC(n2nnc3cc(-c4ccc(-c5ccnc(OC(F)F)c5)cc4O)nnc32)CC(C)(C)N1
pIC50: 5.52 to 6.00
//
molecule: CC1(C)CC(n2nnc3cc(-c4cc5cn[nH]c5cc4O)nnc32)CC(C)(C)N1
pIC50: 6.00 to 6.30
//
molecule: CC1(C)CC(n2cnc3nc(-c4ccc(-c5cn[nH]c5)cc4O)cnc32)CC(C)(C)N1
pIC50: 6.30 to 7.00

Enquiry: Field request: pIC50 | item: CC1(C)CC(n2nnc3cc(-c4ccc(-c5cc[nH]c5)cc4O)nnc32)CC(C)(C)N1
Return: 6.30 to 7.00

Enquiry: Field entry: CC1(C)CC(n2nnc3cc(-c4ccc(-c5cncs5)cc4O)nnc32)CC(C)(C)N1
Return: ≥ 7.00

Enquiry: // repeat for CC1(C)CC(n2nnc3cc(-c4cc(F)c(-c5ccc(O)cc5)cc4O)nnc32)CC(C)(C)N1 and report
Return: ≥ 7.00

Enquiry: Item: CC1(C)CC(c2csc3cc(-c4ccc(-c5cn[nH]c5)cc4O)nnc23)CC(C)(C)N1
Return: ≥ 7.00

Enquiry: Also Cc1cnn(-c2ccc(-c3cc4nnn(C5CC(C)(C)NC(C)(C)C5)c4nn3)c(O)c2)c1 ?
Return: 6.30 to 7.00

Enquiry: Similarly, CC1(C)CC(n2nnc3cc(-c4ccc(-c5ccnnc5)cc4O)nnc32)CC(C)(C)N1 ?
Return: 6.30 to 7.00

* * *

Here the recorded pIC50 is given for each entry.
Tested on: Endogenous Huntingtin Protein
Test: Endogenous Huntingtin Protein Assay (Meso Scale Discovery ELISA-based electrochemiluminescence)
Type: cell-based
Conditions: MSD plates coated with MW1 (expanded polyglutamine) or MAB2166 capture antibody; lysates
pIC50: −log10 of the molar value.

Worked set:
molecule: CC1(C)CC(n2nnc3cc(-c4ccc(-c5cc[nH]n5)cc4O)nnc32)CC(C)(C)N1
pIC50: 6.30 to 7.00
--
molecule: CC1(C)CC(n2nnc3cc(-c4ccc(-c5cnc6cnccn56)cc4O)nnc32)CC(C)(C)N1
pIC50: 5.52 to 6.00
--
molecule: Cn1ccc(-c2ccc(-c3cc4nnn(C5CC(C)(C)NC(C)(C)C5)c4nn3)c(O)c2)cc1=O
pIC50: ≥ 7.00
--
molecule: CC1(C)CC(n2nnc3cc(-c4ccc(-c5cn[nH]c5)c5nn[nH]c45)nnc32)CC(C)(C)N1
pIC50: 5.05 to 5.52
--
molecule: CCOc1cc(-c2ccc(-c3cc4nnn(C5CC(C)(C)NC(C)(C)C5)c4nn3)c(O)c2)ncn1
pIC50: ≥ 7.00

Enquiry: Request the reported pIC50 associated with CC1(C)CC(n2nnc3cc(-c4ccc(-c5c[nH]nc5Cl)cc4O)nnc32)CC(C)(C)N1
Return: ≥ 7.00

* * *

Test system: Endogenous Huntingtin Protein
Test: Endogenous Huntingtin Protein Assay (Meso Scale Discovery ELISA-based electrochemiluminescence)
Format: cell-based
Conditions: MSD plates coated with MW1 (expanded polyglutamine) or MAB2166 capture antibody; lysates
Here, each record is paired with measured IC50 data.

Example compounds with recorded IC50:
compound: CC1(C)CC(n2nnc3cc(-c4ccc(-c5ccc6nccn6n5)cc4O)nnc32)CC(C)(C)N1 [Cpd 162]
systemUnderTest: Endogenous Huntingtin Protein
resultValue: ≤ 100 nM

compound: CC1(C)CC(n2ccc3cc(-c4ccc(-c5cn[nH]c5)cc4O)nnc32)CC(C)(C)N1 [Cpd 26]
systemUnderTest: Endogenous Huntingtin Protein
resultValue: ≤ 100 nM

Attention now shifts to the item below.
Enquiry: Need IC50, item CC1(C)CC(n2nnc3cc(-c4ccc(-c5ccn(C6CC6)c(=O)c5)cc4O)nnc32)CC(C)(C)N1 [Cpd 86]
Return: 1000 to 3000 nM
